target: T1, human PD-1 (construct not stated) (human, UniProt Q15116 25-167, limits assumed); assay: Biacore, antibody captured, PD-1 analyte
T1 construct: also called PD-1 analyte
T1 sequence (Q15116 25-167 limits assumed): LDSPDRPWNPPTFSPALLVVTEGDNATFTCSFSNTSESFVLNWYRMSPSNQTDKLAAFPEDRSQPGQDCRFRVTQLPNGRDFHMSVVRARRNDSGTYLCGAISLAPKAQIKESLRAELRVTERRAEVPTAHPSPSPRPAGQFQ
recorded.metric: Ka (M⁻¹)
A number alone suffices; assume M⁻¹.

# binder, unit, Ka
rows = [
    ("22A5 murine anti-PD-1 antibody (antibody, V domains shown, Purified hybridoma antibody; also called 22A5-mIgG1) VH: EVKLVESGGGLVKPGGSLKLSCSASGFSFSYYDMSWVRQTPEKGLEWVATISGGGRNTYFIDSVKGRFTISRDNVKNNLYLLMSSLRSEDTALYYCASPYEGAVDFWGQGTSVTVSS VL: DIVMTQSHKVMSTSVGDRVSITCKASQDVDNAVAWYQQNPGQSPKLLIKWASTRHHGVPDRFTGSGSGTDFTLTISTVQSEDLADFFCQQYSTFPYTFGGGTKLEIKR", "M⁻¹", "5.17e+10"),
    ("15H5 murine anti-PD-1 antibody (antibody, V domains shown, Purified hybridoma antibody; also called 15H5-mIgG1) VH: EVKLVESGGGLVKPGGSLKLSCAASGFAFRSYDMSWVRQTPEKILEWVATISGGGSYTYYQDSVKGRFTISRDNARNTLYLQMSSLRSEDTALYYCASPYGPYFDYWGQGTTLTVSS VL: DIQMNQSPSSLSASLGDTITITCHASQSINVWLSWYQQKPGNIPKLLIYRASNLHTGVPSRFSGSGSGTGFTLTISSLQPDDIATYYCQQGQSYPWTFGGGTKLEIKR", "M⁻¹", "5.44e+10"),
]

Shifting focus to the binder that follows.
The reported value for 7D3 murine anti-PD-1 antibody (antibody, V domains shown, Purified hybridoma antibody; also called 7D3-mIgG1) VH: EVKLVESGGGLVKPGGSLKLSCGASGFTFSSYGMSWVRQTPEKRLEWVATISGGGRDIYYPDSVKGRLTISRDNAKNNLYLQMSSLRSEDTALYYCVRQYYDDWFAYWGQGTLVTVSA VL: DIVLTQSPATLSVTPGDSVSLSCRASQSISNDLHWYQQKSHESPRLLIKYVSQSISGIPSRFSGSGSGTDFTLSINSVETEDFGMYFCQQSDSWPLTFGAGTKLELKR in terms of Ka is 4.02e+10
